Cited source: ChEMBL document CHEMBL2424542

assay: Displacement of [3H]AMPA from AMPA receptor in rat cortical membranes; format: cell membranes, Membrane
Quantity Measured: IC50

| Compound | IC50 |
| --- | --- |
| N[C@H](C[C@H]1CC(C(=O)O)=NN1)C(=O)O (racemic) | > 100 µM |
| N[C@H](C[C@@H]1CC(C(=O)O)=NO1)C(=O)O (racemic) | > 100 µM |
| N[C@H](C[C@H]1CC(C(=O)O)=NN1Cc1ccccc1)C(=O)O (racemic) | > 100 µM |
| N[C@H](C[C@@H]1CC(C(=O)O)=NN1)C(=O)O (racemic) | > 100 µM |
| N[C@H](C[C@@H]1CC(C(=O)O)=NN1c1ccccc1)C(=O)O (racemic) | > 100 µM |
| N[C@H](C[C@@H]1CC(C(=O)O)=NN1Cc1ccccc1)C(=O)O (racemic) | > 100 µM |

Dear colleague, could you please provide IC50 for the compounds listed below?
1. N[C@H](C[C@H]1CC(C(=O)O)=NN1c1ccccc1)C(=O)O (racemic)
2. N[C@H](C[C@H]1CC(C(=O)O)=NO1)C(=O)O (racemic)

[reply]
> 100 µM
> 100 µM
